B1: TPR t1 (parent)
chain: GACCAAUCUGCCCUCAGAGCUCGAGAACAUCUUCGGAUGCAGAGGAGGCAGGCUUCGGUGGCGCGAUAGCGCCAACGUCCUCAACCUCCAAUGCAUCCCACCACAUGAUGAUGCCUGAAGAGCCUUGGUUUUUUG

# Variants of: B1
# Measurement description: polymerase ribozyme fitness, log enrichment relative to wild type (log ratio); higher = more active; in vitro selection for triplet polymerase activity
For each of the variants below, state its polymerase ribozyme fitness (log ratio).
Format: numeric value only, no unit, no commentary.

Indicate its recorded polymerase ribozyme fitness (log ratio); the variant in question is A2C G42C U96A C123U
-3.31

Indicate the recorded polymerase ribozyme fitness (log ratio) value for this variant: C8A G25U
-4.13

Answer with the recorded polymerase ribozyme fitness (log ratio) of G47A G93U G113U C123U G135U only.
-6.04

Specify reported polymerase ribozyme fitness (log ratio) for the variant shown: G60U C85A
-0.541

Give the reported polymerase ribozyme fitness (log ratio) for this variant. U7G A50U C64U G117C
-4.92

Write down polymerase ribozyme fitness (log ratio) measured for item A6G G48U G52C C73G
-3.58

Respond only with polymerase ribozyme fitness (log ratio) recorded for U38G G61U
-0.532

Fill in polymerase ribozyme fitness (log ratio) for record U81G A84C G113A
-3.43

Indicate the recorded polymerase ribozyme fitness (log ratio) value for this variant: U38C A43U
-2.21

Entry C8U C88U A121C needs its polymerase ribozyme fitness (log ratio) filled in; supply it.
1.33

For the variant U9A A90C , give its reported polymerase ribozyme fitness (log ratio).
-0.569

Give reported polymerase ribozyme fitness (log ratio) value for C12U G17C A29G C82A A90U A95C U106C G120A A121U
-6.75

Provide only the value of recorded polymerase ribozyme fitness (log ratio) for A37G U132C
-1.86

Output measured polymerase ribozyme fitness (log ratio) for this item: C13U G45U U55C C70U G93U
-3.96

Determine from records and report polymerase ribozyme fitness (log ratio) for C4A G120C
-0.842

Let me know recorded polymerase ribozyme fitness (log ratio) for C80A C123U , thanks.
-2.06

Please supply the value of reported polymerase ribozyme fitness (log ratio) for the item C20A C56A C72G A90G
-4.82

Quick one: give measured polymerase ribozyme fitness (log ratio) for U7G G51C
-2.99

Output polymerase ribozyme fitness (log ratio) of C4U A66G C124G
0.544

Consider the variant C98U G110C . State its measured polymerase ribozyme fitness (log ratio).
-4.91

Write down polymerase ribozyme fitness (log ratio) measured for item C88G C94A A111C U133A
-3.52

Return the recorded polymerase ribozyme fitness (log ratio) value; entry: A26C U112C
-4.51

For the variant G42C C56G C72G C88G C114A , report polymerase ribozyme fitness (log ratio).
-7.1

Look up and report measured polymerase ribozyme fitness (log ratio) for this entry: G69U C88U
-0.366

Please look at this variant and report its polymerase ribozyme fitness (log ratio): C8U U32A U96A A121C U130C
-3.85

Report polymerase ribozyme fitness (log ratio), nothing else, for this variant: G47C G69U C72U
-1.29

Name the recorded polymerase ribozyme fitness (log ratio) of the item U14G C80U C89G in your answer.
-4.89

Please list polymerase ribozyme fitness (log ratio) recorded for the variant G39U A46G C115G
-3.39

Hello, please tell me recorded polymerase ribozyme fitness (log ratio) for this one: C11U A18U G69U
-0.642

Identify the reported polymerase ribozyme fitness (log ratio) for the following entry. C11A C53G G57A C123G
-1.45

Supply recorded polymerase ribozyme fitness (log ratio) for G42C C56A G122A here.
-2.92

Hello, please tell me recorded polymerase ribozyme fitness (log ratio) for this one: G60C C79A C88G
-2.51

Value source: the RNAGym collection of RNA variant scans (doi:10.1073/pnas.2313332121)
